Data credit: ChEMBL document CHEMBL1134834

System Tested: Human immunodeficiency virus type 1 reverse transcriptase (Human immunodeficiency virus 1, UniProt Q72547, Y181I)
Test Details: Inhibition of HIV-1 Mutant HIV-1 RT enzymes containing the single amino acid substitution Y181I
Listed next: entries and their corresponding Ki.
Report as a plain number; the unit µM is understood.

Fc1cccc2c1nc(OCCNC(=S)Nc1ccc(Br)cn1)c1cccn12 : 0.3

Next compound, please.
Data request: Find the measured Ki of S=C(NCCOc1nc2cc(Cl)ccc2n2cccc12)Nc1ccc(Br)cn1 and report it.
Data returned: 0.09

###

Test Details: Cytotoxicity on normal human lymphocytes(HL) (O.D.=0.114+/-0.01)
Experimental Context: read-out: TC50 (the source's name)
Outcome Measure: CC50 (µM)
Only the number, expressed in µM, is required.

Data request: Input O=c1c2cccn2c2c(F)cccc2n1CCNC(=S)Nc1ccc(Br)cn1 , output reported CC50.
Data returned: 510

###

Test Details: Bioavailability was determined after subcutaneous administration of a dose of 20 mg/kg in mice
Format: ADME, organism-based
Experimental Context: mouse, in vivo, po, in the assay text read “oral” for “subcutaneous”
Outcome Measure: bioavailability (%)
Respond with the bare value in %.

Data request: Tell me bioavailability reported for O=C(NNc1nc2ccccc2n2cccc12)c1cnccn1
Data returned: 45

###

Each record here notes measured Ki.
System Tested: Human immunodeficiency virus type 1 reverse transcriptase (Human immunodeficiency virus 1, UniProt Q72547, Y188L)
Test Details: Inhibition of HIV-1 Mutant HIV-1 RT enzymes containing the single amino acid substitution Y188L

Sample answers from the record:
O=C(NNc1nc2ccccc2n2cccc12)c1cnccn1 : 1800 nM
O=c1c2cccn2c2cccc(F)c2n1CC/N=C(\S)Nc1ccc(Br)cn1 : 200 nM
O=c1c2cccn2c2ccc(F)cc2n1CC/N=C(\S)Nc1ccc(Br)cn1 : 1200 nM
O=c1c2cccn2c2c(F)cc(F)cc2n1CCNC(=S)Nc1ccc(Br)cn1 : 450 nM
O=c1c2nccn2c2ccccc2n1CCNC(=S)Nc1ccc(Br)cn1 : 5000 nM
O=c1c2cccn2c2ncccc2n1CCNC(=S)Nc1ccc(Br)cn1 : 130 nM
O=c1c2cccn2c2ccc(Cl)cc2n1CCNC(=S)Nc1ccc(Br)cn1 : 900 nM
S=C(NCCOc1nc2cc(Cl)ccc2n2cccc12)Nc1ccc(Br)cn1 : 100 nM
O=c1c2cccn2c2ccccc2n1CCNC(=S)Nc1ccc(Br)cn1 : 2500 nM
Fc1cccc2c1nc(OCCNC(=S)Nc1ccc(Br)cn1)c1cccn12 : 700 nM

Data request: Retrieve Ki measured for Cc1cc2nc(OCCNC(=S)Nc3ccc(Br)cn3)c3cccn3c2cc1C and print it.
Data returned: 1500 nM

Data request: Give the reported Ki for this compound. O=c1n(CCNC(=S)Nc2ccc(Br)cn2)c2ccccc2c2ccnn12
Data returned: 400 nM

Data request: Fill in Ki for record O=c1c2cccn2c2c(F)cccc2n1CCNC(=S)Nc1ccc(Br)cn1
Data returned: 200 nM

###

Listed here: items and their measured pKi.
System Tested: Human immunodeficiency virus type 1 reverse transcriptase (Human immunodeficiency virus 1, UniProt Q72547, V106A)
Test Details: Inhibition of HIV-1 Mutant HIV-1 RT enzymes containing the single amino acid substitution V106A
Convention used: pKi is expressed as -log10 of the molar concentration.

Solved entries:
O=c1c2cccn2c2ccc(Cl)cc2n1CCNC(=S)Nc1ccc(Br)cn1 : 7.70
O=c1c2cccn2c2ncccc2n1CCNC(=S)Nc1ccc(Br)cn1 : 7.30
Fc1cccc2c1nc(OCCNC(=S)Nc1ccc(Br)cn1)c1cccn12 : 7.54
O=c1c2cccn2c2ccccc2n1CCNC(=S)Nc1ccc(Br)cn1 : 6.95
O=c1n(CCNC(=S)Nc2ccc(Br)cn2)c2ccccc2c2ccnn12 : 6.48
O=c1c2cccn2c2c(F)cccc2n1CCNC(=S)Nc1ccc(Br)cn1 : 7.22
O=C(NNc1nc2ccccc2n2cccc12)c1cnccn1 : 6.10
O=c1c2cccn2c2ccc(F)cc2n1CC/N=C(\S)Nc1ccc(Br)cn1 : 7.40
O=c1c2cccn2c2c(F)cc(F)cc2n1CCNC(=S)Nc1ccc(Br)cn1 : 7.52
Cc1cc2nc(OCCNC(=S)Nc3ccc(Br)cn3)c3cccn3c2cc1C : 6.82

Data request: Note pKi for the molecule shown: S=C(NCCOc1nc2cc(Cl)ccc2n2cccc12)Nc1ccc(Br)cn1
Data returned: 6.92

Data request: Provide only the value of recorded pKi for O=c1c2cccn2c2cccc(F)c2n1CC/N=C(\S)Nc1ccc(Br)cn1
Data returned: 7.82

Data request: Please supply the value of reported pKi for the item O=c1c2nccn2c2ccccc2n1CCNC(=S)Nc1ccc(Br)cn1
Data returned: 6.46
